test: Clearance in Sprague-Dawley rat at 1.10 mg/kg, po or 0.55 mg/kg, iv; type: ADME, organism-based; settings: in vivo, dose 1.1 mg/kg
measurement-kind: clearance (mL/min/kg)
Reply numerically in mL/min/kg, unit not repeated.

Consider the compound C[C@@H]1CCC[C@H](N2CCC(c3cc(Cl)ccc3-n3ccnn3)=CC2=O)c2cc(ccn2)-c2c(cnn2C(F)F)NC1=O . State its measured clearance. 42

====

assay: Apparent permeability across apical to basolateral side in human Caco2 cells; type: ADME, cell-based; settings: Caco-2, read-out: permeability
measurement-kind: Papp A→B

Consider the molecule C[C@@H]1CCC[C@H](N2CCC(c3cc(Cl)ccc3-n3ccnn3)=CC2=O)c2cc(ccn2)-c2c(cnn2C(F)F)NC1=O . State its measured Papp A→B. < 1.5 ×10⁻⁶ cm/s
